Please respond with reported pIC50 for every item in the list.
Tested on: Chloroquine-resistant P. falciparum K 1-strain
assay.overview: Antiplasmodial activity, Malstat (pLDH) assay
Format: cell-based, Plasmodium falciparum
condition.description: Plasmodium falciparum, 72 h, pure compounds; K1 strain, 72 h; read-out: P. falciparum IC50
One number for each entry, as −log10 of the molar value.

compound: C[C@H]1[C@H](C)CC[C@]2(C(=O)O)CC[C@]3(C)C(=CC[C@@H]4[C@@]5(C)CC[C@H](O)C(C)(C)[C@@H]5CC[C@]43C)[C@H]12 [Cmpd. 3, 3β-hydroxy-urs-12-en-28-oic acid]
pIC50: 4.53

The reported value for C[C@@H]1CC[C@]2(C)CC[C@]3(C)C(=C[C@@H](O)C4[C@@]5(C)CC[C@H](O)C(C)(C)C5CC[C@]43C)C2[C@H]1C (stereo partly drawn) [Cmpd. 5, 3β,11α-Dihydroxyurs-12-ene] in terms of pIC50 is 4.62
